Measured pIC50 values are reported for all entries that follow.
System: K562 (chronic myelogenous leukaemia)
experimentSummary: Effect of compounds on tumor cell lines (assay of Latham et al.), K562
Assay type: cell-based
cond: K562 cells, 96 hours after treatment, 1 μM to 100 μM; read-out: K 562 potency (IC50)
pIC50: −log10 of the molar value.

Worked examples follow.
1) O=C(O)c1ccc(C(=O)C(=Cc2ccc(Br)c([N+](=O)[O-])c2)SCc2ccc(F)cc2)cc1 [Example 252] : ≥ 6.00
2) Cc1ccc(CSC(=Cc2c[nH]c3ccc(Br)cc23)C(=O)c2ccc(Cl)cc2)cc1 [Example 295] : 5.00 to 6.00
3) COc1cc(OC)c(C=C(SCc2ccc(Cl)c(Cl)c2)C(=O)c2ccc(Cl)cc2)c(OC)c1 [Example 137] : 4.60 to 5.00
4) Cc1ccc(CSC(=Cc2ccc(Cl)cc2)C(=O)c2ccc(Cl)cc2)cc1 [Example 288] : 5.00 to 6.00
5) COc1ccccc1C=C(SCc1ccc(Cl)cc1)C(=O)c1ccc(Cl)cc1 [Example 199] : 5.00 to 6.00
6) O=C(C(=Cc1ccc(Br)cc1)SCc1ccc(F)cc1)c1ccc(Cl)cc1 [Example 254] : 5.00 to 6.00

Please turn your attention to the following entry.
Endpoint output: pIC50 of Cc1ccsc1C=C(SCc1ccc(F)cc1)C(=O)c1ccc(Br)cc1 [Example 246] . Value?
< 4.00

----------
System: K562 (chronic myelogenous leukaemia)
experimentSummary: Effect of compounds on tumor cell lines (assay of Latham et al.), K562
Assay type: cell-based
cond: K562 cells, 96 hours after treatment, 1 μM to 100 μM; read-out: K 562 potency (IC50)
pIC50: −log10 of the molar value.
Measured pIC50 values are reported for all entries that follow.

Worked examples follow.
1. Cc1ccc(CSC(=Cc2ccc(F)cc2C(F)(F)F)C(=O)c2ccc(Cl)cc2)cc1 [Example 290] : 4.00 to 4.30
2. O=C(C(=Cc1cccnc1)SCc1ccc(Cl)cc1)c1ccc(Cl)cc1 [Example 322] : 5.00 to 6.00
3. Cc1ccc(CSC(=Cc2ccccc2OCc2ccccc2)C(=O)c2ccc(Cl)cc2)cc1 [Example 274] : 5.00 to 6.00

Endpoint output: pIC50 of CSc1ccc(C=C(SCc2ccc(C)cc2)C(=O)c2ccc(Br)cc2)cc1 [Example 293] . Value?
4.30 to 4.60

Endpoint output: pIC50 of O=C(O)c1ccc(C(=O)C(=Cc2ccc(F)c([N+](=O)[O-])c2)SCc2ccc(Cl)cc2Cl)cc1 [Example 301] . Value?
≥ 6.00

Endpoint output: pIC50 of CN(C)c1ccc(C=C(SCc2ccc(F)cc2)C(=O)c2ccc(Br)cc2)cc1 [Example 249] . Value?
5.00 to 6.00

Endpoint output: pIC50 of CC1=CC(=O)C(C)=C(C(C)(C)CC(=O)Oc2ccc(C(=O)/C(=C\c3ccc(F)c([N+](=O)[O-])c3)SCc3ccc(F)cc3)cc2)C1=O [Example 339] . Value?
5.00 to 6.00

Endpoint output: pIC50 of O=C(/C(=C\c1ccc(F)c([N+](=O)[O-])c1)SCc1ccc(F)cc1)c1ccc(O)cc1 [Example 342] . Value?
≥ 6.00

----------
System: K562 (chronic myelogenous leukaemia)
experimentSummary: Effect of compounds on tumor cell lines (assay of Latham et al.), K562
Assay type: cell-based
cond: K562 cells, 96 hours after treatment, 1 μM to 100 μM; read-out: K 562 potency (IC50)
Procedure: The effect of the compounds of the invention on tumor cells was determined by the assay described by Latham et al., Oncogene 12:827-837 (1996). Tumor cells K562 (chronic myelogenous leukaemia) or DU145 (prostate cancer) were plated in 12-well dishes at a cell density of 2.5×10^4 cells well. […] When necessary, the total number of viable cells was determined by trypsinizing the wells and counting the number of viable cells, as determined by trypan blue exclusion, using a hemacytometer. […]
pIC50: −log10 of the molar value.
testReadout: pIC50

Worked examples follow.
1. O=C(/C(=C\c1ccc([N+](=O)[O-])c(O)c1)SCc1ccc(Br)cc1)c1ccc(N2CCCC2)cc1 [Example 159] : < 4.00
2. CCOC(=O)c1c(C)[nH]c(/C=C(/SCc2ccc(Br)cc2)C(=O)c2ccc(Br)cc2)c1C [Example 170] : 4.30 to 4.60
3. COc1cc(OC)c(C=C(SCc2ccc(F)cc2)C(=O)c2ccc(Cl)cc2)c(OC)c1 [Example 234] : 4.60 to 5.00
4. CN1CCN(CCNc2ccc(C=C(SCc3ccc(F)cc3)C(=O)c3ccc(F)cc3)cc2[N+](=O)[O-])CC1 [Example 329] : ≥ 6.00

Please turn your attention to the following entry.
Endpoint output: pIC50 of O=C(C(=Cc1ccc(Cl)cc1)SCc1ccccc1Cl)c1ccc(Cl)cc1 [Example 130] . Value?
5.00 to 6.00
